- tested-on: Human α4β2 nAChR (Homo sapiens, UniProt P17787+P43681)
- Construct: expressed in transfected cells; host or cells: SH-EP1 clonal cells expressing human α4β2
- Sequence (P43681 29-627 limits assumed): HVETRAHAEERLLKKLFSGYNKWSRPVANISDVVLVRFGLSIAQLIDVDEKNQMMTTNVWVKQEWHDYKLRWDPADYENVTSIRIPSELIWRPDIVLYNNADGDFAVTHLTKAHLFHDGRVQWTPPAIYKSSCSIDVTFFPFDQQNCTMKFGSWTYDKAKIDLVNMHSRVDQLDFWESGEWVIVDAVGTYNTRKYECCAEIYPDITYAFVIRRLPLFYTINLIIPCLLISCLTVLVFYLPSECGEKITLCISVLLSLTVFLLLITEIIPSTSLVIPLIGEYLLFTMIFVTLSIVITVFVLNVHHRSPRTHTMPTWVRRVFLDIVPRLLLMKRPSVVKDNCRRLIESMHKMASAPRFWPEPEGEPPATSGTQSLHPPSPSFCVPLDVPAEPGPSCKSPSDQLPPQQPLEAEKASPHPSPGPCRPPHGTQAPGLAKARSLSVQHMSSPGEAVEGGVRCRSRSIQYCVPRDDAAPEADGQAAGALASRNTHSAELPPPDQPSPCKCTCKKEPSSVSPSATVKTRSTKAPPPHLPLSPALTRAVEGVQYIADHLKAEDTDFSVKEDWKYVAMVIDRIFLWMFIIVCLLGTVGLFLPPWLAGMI
- Sequence (P17787 26-502): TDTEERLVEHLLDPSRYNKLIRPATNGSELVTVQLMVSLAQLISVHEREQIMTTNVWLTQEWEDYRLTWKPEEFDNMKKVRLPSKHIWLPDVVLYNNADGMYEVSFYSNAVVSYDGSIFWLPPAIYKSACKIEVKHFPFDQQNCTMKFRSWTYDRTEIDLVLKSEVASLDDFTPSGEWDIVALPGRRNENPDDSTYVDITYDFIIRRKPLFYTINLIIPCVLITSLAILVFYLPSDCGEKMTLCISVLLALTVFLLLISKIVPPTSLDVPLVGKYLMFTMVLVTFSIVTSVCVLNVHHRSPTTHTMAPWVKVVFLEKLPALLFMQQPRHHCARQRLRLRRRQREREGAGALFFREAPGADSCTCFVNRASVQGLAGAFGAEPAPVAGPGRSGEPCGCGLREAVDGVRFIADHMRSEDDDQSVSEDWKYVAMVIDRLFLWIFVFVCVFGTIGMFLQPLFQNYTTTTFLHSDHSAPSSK
- method-notes: Radioligand binding ([3H]nicotine) at α4β2 nAChR, membranes from SH-EP1/human α4β2 clonal cells
measured-attribute: pKi
Friendly reminder that pKi comes from taking -log10 of the concentration in mol/L.

With Human α4β2 nAChR (Homo sapiens, UniProt P17787+P43681) as the test system, c1cncc(N2CC3CC(C2)CN(C2CNC2)C3)c1 showed pKi of 8.24

With Human α4β2 nAChR (Homo sapiens, UniProt P17787+P43681) as the test system, c1cncc(N2CC3CC(C2)CN(C2CCNCC2)C3)c1 showed pKi of 7.85

With Human α4β2 nAChR (Homo sapiens, UniProt P17787+P43681) as the test system, c1cncc(N2CC3CC(C2)CN(C2CN4CCC2CC4)C3)c1 (stereo not shown) showed pKi of 7.38

With Human α4β2 nAChR (Homo sapiens, UniProt P17787+P43681) as the test system, CN1CCC(N2CC3CC(CN(c4cccnc4)C3)C2)C1 (stereo not shown) showed pKi of 7.96
